Each recorded value in this set is attributed to paper PMC7819943.

# TGT: OsWOX13 (Oryza sativa, UniProt Q5QMM3 1-267)
# Sequence: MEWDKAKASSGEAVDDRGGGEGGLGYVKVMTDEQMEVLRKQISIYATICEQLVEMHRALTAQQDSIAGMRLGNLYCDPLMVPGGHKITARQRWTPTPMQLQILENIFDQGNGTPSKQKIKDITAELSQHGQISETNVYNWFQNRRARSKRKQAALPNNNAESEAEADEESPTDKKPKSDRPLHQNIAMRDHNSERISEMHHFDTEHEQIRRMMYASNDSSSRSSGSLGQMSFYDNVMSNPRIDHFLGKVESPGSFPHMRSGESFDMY
# PROCEDURE_DETAILS: protein-binding microarray (RPBM); PBS, 2% BSA, 51.3 ng/ul salmon testes DNA, 50 uM zinc acetate, 200 nM TF, 25 C, 1 h; high values mean tight binding
# PROTOCOL_CONDITIONS: protein: recombinant; tags: N-terminal polyhistidine and DsRed monomer fusion (pET32a); label: CyDye5-dUTP incorporated in the synthesized complementary strand; 3' TTTTT single-stranded linker to array surface; dsDNA, one strand shown
The full ranking holds about 35,000 sequences; the median of “fluorescence intensity (a.u.)” is about 10,000, and the highest 2% start at about 52,000. This is one part of a sample in which the highest values are shown more often than they occur.
ENDPOINT_NAME: binding signal

CAAAACTAAAATGTTATCATATAATTATATATTTAAGACCCGGAGTCACCTAGTGCAG = 8760 fluorescence intensity (a.u.)
TTAAATTTTCTATATAAATCTATTCAAATCTGCATAAATGCGGAGTCACCTAGTGCAG = 3870 fluorescence intensity (a.u.)
ATATAAATTTGGAACAAATTCAACATCATGTTATCCTAGGCGGAGTCACCTAGTGCAG = 4060 fluorescence intensity (a.u.)
TTTGATTTGTTAATCCAGCTAGTCGTGGGGAATAGTGAAGCGGAGTCACCTAGTGCAG = 42700 fluorescence intensity (a.u.)
CATATAAATTGACAACTTCTACTTAAACCTGACATGTGGGCGGAGTCACCTAGTGCAG = 54500 fluorescence intensity (a.u.)
CATTTGATTTTCGGTCTGATTTTGTTATTTCACTGGCAATCGGAGTCACCTAGTGCAG = 24300 fluorescence intensity (a.u.)
GAAATTACATATGACAAATCCAGAATTTTGATGGAGTGGTCGGAGTCACCTAGTGCAG = 6770 fluorescence intensity (a.u.)
ATATGATATTTGTCCATCTTAATTGCTTATAAGCTGTATACGGAGTCACCTAGTGCAG = 5090 fluorescence intensity (a.u.)

// query Consider the sequence shown here: `TAGTCAATTACTACTAGGTATGTGCTATTCATAACCATGACGGAGTCACCTAGTGCAG` What is its recorded binding signal?
// result 7320 fluorescence intensity (a.u.)

====

# TGT: OsWOX13 (Oryza sativa, UniProt Q5QMM3 1-267)
# Sequence: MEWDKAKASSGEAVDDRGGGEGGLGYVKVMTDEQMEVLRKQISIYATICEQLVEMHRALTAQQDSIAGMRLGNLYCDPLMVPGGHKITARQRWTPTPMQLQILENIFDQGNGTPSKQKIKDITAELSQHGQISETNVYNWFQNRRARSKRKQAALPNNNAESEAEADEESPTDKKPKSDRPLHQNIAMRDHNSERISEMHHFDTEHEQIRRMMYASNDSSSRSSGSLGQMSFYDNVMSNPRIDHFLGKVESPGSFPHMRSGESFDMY
# PROCEDURE_DETAILS: protein-binding microarray (RPBM); PBS, 2% BSA, 51.3 ng/ul salmon testes DNA, 50 uM zinc acetate, 200 nM TF, 25 C, 1 h; high values mean tight binding
# PROTOCOL_CONDITIONS: protein: recombinant; tags: N-terminal polyhistidine and DsRed monomer fusion (pET32a); label: CyDye5-dUTP incorporated in the synthesized complementary strand; 3' TTTTT single-stranded linker to array surface; dsDNA, one strand shown
Whole data set: some 35,000 sequences, median “fluorescence intensity (a.u.)” near 10,000, cut for the highest 2% near 52,000. The sample as a whole holds a higher share of the highest values than the screen did.
Answer each item with its documented binding signal.

These solved cases illustrate the format of a correct answer.
TGTTAACCAGATTTATTATATTTGAAAATGTCACCTCCAACGGAGTCACCTAGTGCAG = 8160 fluorescence intensity (a.u.)
GTCTCTTTGAAATTGAAATTGGGCCTCATTTAGTCTGTTACGGAGTCACCTAGTGCAG = 3500 fluorescence intensity (a.u.)
ATATTGATTGCATAAAGAAAGTTCGGTCCTGTTCACTTTGCGGAGTCACCTAGTGCAG = 39900 fluorescence intensity (a.u.)
CGAAGATTGAGTCCTTTGAAGCCGAGCTCTCCATGGCCATCGGAGTCACCTAGTGCAG = 17100 fluorescence intensity (a.u.)
CAGTGTGATTTAAGAATTTTCAACTGTAAAAGAATAGGAGCGGAGTCACCTAGTGCAG = 10000 fluorescence intensity (a.u.)
TAAGTAGATCGAAAATGTTTCAATCATTTAAATCAGGCGTCGGAGTCACCTAGTGCAG = 4180 fluorescence intensity (a.u.)

Could I get binding signal for every one of these entries?
1. TTCGCTTTGATGGACGGCTCAGATCGGCTCCTAATCCATCCGGAGTCACCTAGTGCAG
2. TTGTAATTGATTGTGGCCCATCAACTATTGCCATCACTGGCGGAGTCACCTAGTGCAG
3. TAACTAATTACCAAACAGATCGTACCCCACCATAAGAATCCGGAGTCACCTAGTGCAG
4. GCTTAATTGAAGGAGCCATGGCAGCTGTCCTCTCCCGCCGCGGAGTCACCTAGTGCAG
5. TTGCTGATTGTGAATGGTGGGTGCAAGGATACACTTTTCGCGGAGTCACCTAGTGCAG
6. TGCCTAATTGTTGCCATTGATTTGTTAGCCACACCTTTGGCGGAGTCACCTAGTGCAG
7. TTGGGAAACGGAGGAAGTAATTAATTAGTCTTTGTGGAAACGGAGTCACCTAGTGCAG
8. CCTCCTCATCATGGCTTAATTAATTAATACTCCTAGCTGCCGGAGTCACCTAGTGCAG

// result
1. 3310 fluorescence intensity (a.u.)
2. 64900 fluorescence intensity (a.u.)
3. 29200 fluorescence intensity (a.u.)
4. 53200 fluorescence intensity (a.u.)
5. 23900 fluorescence intensity (a.u.)
6. 40300 fluorescence intensity (a.u.)
7. 3790 fluorescence intensity (a.u.)
8. 29000 fluorescence intensity (a.u.)
